# credit: ChEMBL document CHEMBL3124866

Test system: Enterococcus faecium
assay notes: Antibacterial activity against drug-sensitive Enterococcus faecium ATCC 19634 after 24 hrs by broth microdilution assay
Type: functional
measurement setup: ATCC 19634, 24 h
// log10 MIC lookup, one value per entry
reported endpoint: log10 MIC (log10 of the value in µg/mL)

{"smiles record": "CCCCCCN(Cc1cccc2ccccc12)C(=O)[C@@H](N)CCCCN.O=C(O)C(F)(F)F.O=C(O)C(F)(F)F", "log10 MIC": 1.53}
{"smiles record": "CCN(Cc1c2ccccc2c(Cl)c2ccccc12)C(=O)[C@@H](N)CCCCN.O=C(O)C(F)(F)F.O=C(O)C(F)(F)F", "log10 MIC": 1.13}
{"smiles record": "CCCCCCCCCCCCN(Cc1cccc2ccccc12)C(=O)[C@@H](N)CCCCN.O=C(O)C(F)(F)F.O=C(O)C(F)(F)F", "log10 MIC": 0.20}
{"smiles record": "CCCCCCCCN(Cc1cccc2ccccc12)C(=O)[C@@H](N)CCCCN.O=C(O)C(F)(F)F.O=C(O)C(F)(F)F", "log10 MIC": 0.74}
{"smiles record": "CCCCCCCCCCCCCCN(Cc1ccccc1)C(=O)[C@@H](N)CCCCN.O=C(O)C(F)(F)F.O=C(O)C(F)(F)F", "log10 MIC": 0.30}
{"smiles record": "CCCCCCCCCCCCN(Cc1ccccc1)C(=O)[C@@H](N)CCCCN.O=C(O)C(F)(F)F.O=C(O)C(F)(F)F", "log10 MIC": 0.41}
